target: TEAD2 TAZ (amino acids 13-57) (Homo sapiens); assay: TEAD2-TAZ HTRF (TR-FRET) protein-protein interaction assay; type: binding; conditions: TEAD2-TAZ HTRF, TR-FRET 665 nm/615 nm; read-out: TEAD2 TAZ HTRF combined: EC50
Sequence (Q15562 217-447): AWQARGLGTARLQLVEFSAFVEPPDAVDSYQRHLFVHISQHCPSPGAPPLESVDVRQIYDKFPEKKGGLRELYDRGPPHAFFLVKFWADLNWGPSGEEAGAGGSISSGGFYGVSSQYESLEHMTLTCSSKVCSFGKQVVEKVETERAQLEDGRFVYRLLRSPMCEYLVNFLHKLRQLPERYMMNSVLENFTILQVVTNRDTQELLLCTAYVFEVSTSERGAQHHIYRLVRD
test readout: EC50 (µM)

For orientation, consider the following solved cases.
[
  {
    "molecule": "Cn1cnc(-c2nn3c(=O)cc(-c4ccc(C5CCCCC5)cc4)[nH]c3c2C(=O)N2CC(CF)C2)c1 [Compound 32]",
    "test readout": "EC50",
    "unit tag": "µM",
    "measurement": 0.01
  },
  {
    "molecule": "CN(C)C(=O)c1nn2c(=O)cc(-c3cc(F)c(C4CCCCC4)c(F)c3)[nH]c2c1C(=O)N1CC(CF)C1 [Compound 3]",
    "test readout": "EC50",
    "unit tag": "µM",
    "measurement": 0.01
  },
  {
    "molecule": "C[C@H]1[C@@H](CF)CN1C(=O)c1c(-c2cnccn2)nn2c(=O)cc(-c3ccc(C4CCCCC4)cc3)[nH]c12 (single isomer, unassigned) [Isomer A, Example 39]",
    "test readout": "EC50",
    "unit tag": "µM",
    "measurement": 0.01
  }
]

A = C[C@H]1[C@@H](CF)CN1C(=O)c1c(-c2cnccn2)nn2c(=O)cc(-c3ccc(CC4CCCC4)cc3)[nH]c12 (single isomer, unassigned) [Isomer A, Example 44]
B = [2H]C1([2H])C([2H])([2H])C([2H])([2H])C([2H])(c2ccc(-c3cc(=O)n4nc(-c5nccnc5C)c(C(=O)N5C[C@H](CF)[C@@H]5C)c4[nH]3)cc2)C([2H])([2H])C1([2H])[2H] [Compound 72]
input: # return whichever of A and B has the smaller EC50 Your choice should be expressed through its label.
output: B
